Cited source: ChEMBL document CHEMBL5614372

biological target: Serine/threonine-protein kinase PAK 3 (Homo sapiens, UniProt O75914)
Sequence (O75914 whole entry): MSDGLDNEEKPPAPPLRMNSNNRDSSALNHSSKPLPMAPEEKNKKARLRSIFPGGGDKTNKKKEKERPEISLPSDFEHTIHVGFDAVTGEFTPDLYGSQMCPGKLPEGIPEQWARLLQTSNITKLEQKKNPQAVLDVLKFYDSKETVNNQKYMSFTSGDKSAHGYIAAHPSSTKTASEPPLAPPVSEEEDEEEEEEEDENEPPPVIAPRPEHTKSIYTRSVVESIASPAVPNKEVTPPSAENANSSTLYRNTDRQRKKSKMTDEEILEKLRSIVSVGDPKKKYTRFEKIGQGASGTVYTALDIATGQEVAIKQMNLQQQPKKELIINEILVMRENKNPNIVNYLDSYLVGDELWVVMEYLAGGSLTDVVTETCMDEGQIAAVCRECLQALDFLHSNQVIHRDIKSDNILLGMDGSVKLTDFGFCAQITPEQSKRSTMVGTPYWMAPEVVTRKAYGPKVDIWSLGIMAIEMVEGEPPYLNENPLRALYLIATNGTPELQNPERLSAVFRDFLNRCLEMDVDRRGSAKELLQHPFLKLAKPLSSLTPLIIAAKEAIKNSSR
observed property: pIC50
Scale explanation: pIC50 corresponds to minus log10 of a concentration expressed in moles per litre.

Task: // lookup pIC50 | system=Serine/threonine-protein kinase PAK 3 (Homo sapiens, UniProt O75914) | key= `O=C(CCCCCn1c(=O)c(-c2ccc(Cl)cc2Cl)cc2cnc(NC3CC3)nc21)NO`
Output: 6.36

---

biological target: Histone deacetylase 2 (Homo sapiens)
Sequence (Q92769 whole entry): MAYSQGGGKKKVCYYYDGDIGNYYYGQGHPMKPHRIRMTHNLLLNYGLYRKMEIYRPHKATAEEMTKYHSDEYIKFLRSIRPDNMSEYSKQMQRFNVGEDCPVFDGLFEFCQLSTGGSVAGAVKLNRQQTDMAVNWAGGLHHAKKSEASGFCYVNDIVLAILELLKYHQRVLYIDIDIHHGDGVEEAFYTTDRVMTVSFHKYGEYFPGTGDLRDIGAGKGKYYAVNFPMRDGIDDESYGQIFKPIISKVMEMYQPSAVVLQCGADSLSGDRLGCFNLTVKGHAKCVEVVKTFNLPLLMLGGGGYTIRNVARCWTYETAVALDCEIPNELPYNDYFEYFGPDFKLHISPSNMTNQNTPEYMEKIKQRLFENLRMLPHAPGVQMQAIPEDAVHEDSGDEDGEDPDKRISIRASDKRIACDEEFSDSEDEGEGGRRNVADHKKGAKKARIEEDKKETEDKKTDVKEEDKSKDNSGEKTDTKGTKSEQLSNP
Field: pIC50. Provide a value for each of the compounds that follow.
Scale explanation: pIC50 corresponds to minus log10 of a concentration expressed in moles per litre.

Task: Entry `C[C@@H]1CN(Cc2ccc(C(=O)NO)cc2)C[C@H]1c1nc2c(cnn2C2CCOCC2)c(=O)[nH]1` : reported pIC50 = ?
Output: 5.45

Task: Entry `CC12CC3CC(C)(C1)CC(NC(=O)/C=C/c1ccc(C(=O)NO)cc1)(C3)C2` : reported pIC50 = ?
Output: 5.10

---

biological target: UniProt:P56524; assay: Inhibition of human recombinant HDAC4 using fluorogenic HDAC substrate incubated for 20 mins by fluorescence based assay
Sequence (P56524 whole entry): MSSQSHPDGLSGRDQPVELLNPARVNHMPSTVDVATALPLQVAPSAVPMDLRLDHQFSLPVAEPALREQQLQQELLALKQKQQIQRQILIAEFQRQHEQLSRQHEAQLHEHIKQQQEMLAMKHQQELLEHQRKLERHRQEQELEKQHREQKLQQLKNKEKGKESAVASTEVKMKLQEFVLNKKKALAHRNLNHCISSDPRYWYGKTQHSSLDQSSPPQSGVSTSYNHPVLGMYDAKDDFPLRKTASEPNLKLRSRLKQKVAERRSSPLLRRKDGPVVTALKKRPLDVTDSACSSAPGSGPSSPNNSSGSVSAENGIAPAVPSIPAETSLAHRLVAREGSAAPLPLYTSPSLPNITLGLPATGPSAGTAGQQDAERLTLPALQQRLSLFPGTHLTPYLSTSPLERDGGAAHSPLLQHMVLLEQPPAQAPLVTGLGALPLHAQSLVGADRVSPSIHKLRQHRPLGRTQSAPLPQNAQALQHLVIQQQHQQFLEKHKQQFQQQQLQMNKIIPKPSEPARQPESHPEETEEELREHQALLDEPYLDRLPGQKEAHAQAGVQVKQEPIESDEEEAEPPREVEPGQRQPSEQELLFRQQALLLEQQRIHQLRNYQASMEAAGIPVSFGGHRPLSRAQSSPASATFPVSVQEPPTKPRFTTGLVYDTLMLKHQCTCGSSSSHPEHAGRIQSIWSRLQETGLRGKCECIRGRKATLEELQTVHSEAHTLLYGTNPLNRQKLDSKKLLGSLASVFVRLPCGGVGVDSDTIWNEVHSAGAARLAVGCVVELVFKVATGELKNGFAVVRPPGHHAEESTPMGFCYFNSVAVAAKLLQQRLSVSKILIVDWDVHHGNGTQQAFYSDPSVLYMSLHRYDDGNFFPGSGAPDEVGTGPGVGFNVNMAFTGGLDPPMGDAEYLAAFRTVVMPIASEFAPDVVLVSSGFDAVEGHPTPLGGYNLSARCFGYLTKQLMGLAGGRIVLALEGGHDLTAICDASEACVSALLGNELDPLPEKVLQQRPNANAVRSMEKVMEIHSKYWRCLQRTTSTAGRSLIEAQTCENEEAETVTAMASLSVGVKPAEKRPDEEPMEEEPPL
observed property: IC50

Task: Entry `CC(C)(C)c1nc(-c2cccc(NS(=O)(=O)c3c(F)cccc3F)c2F)c(-c2ccnc(NCCCCCCC(=O)NO)n2)s1` : reported IC50 = ?
Output: > 100 µM

---

target: Histone deacetylase 3 (Homo sapiens, UniProt O15379); experiment: Inhibition of human recombinant HDAC3 using fluorogenic HDAC substrate incubated for 20 mins by fluorescence based assay
Sequence (O15379 whole entry): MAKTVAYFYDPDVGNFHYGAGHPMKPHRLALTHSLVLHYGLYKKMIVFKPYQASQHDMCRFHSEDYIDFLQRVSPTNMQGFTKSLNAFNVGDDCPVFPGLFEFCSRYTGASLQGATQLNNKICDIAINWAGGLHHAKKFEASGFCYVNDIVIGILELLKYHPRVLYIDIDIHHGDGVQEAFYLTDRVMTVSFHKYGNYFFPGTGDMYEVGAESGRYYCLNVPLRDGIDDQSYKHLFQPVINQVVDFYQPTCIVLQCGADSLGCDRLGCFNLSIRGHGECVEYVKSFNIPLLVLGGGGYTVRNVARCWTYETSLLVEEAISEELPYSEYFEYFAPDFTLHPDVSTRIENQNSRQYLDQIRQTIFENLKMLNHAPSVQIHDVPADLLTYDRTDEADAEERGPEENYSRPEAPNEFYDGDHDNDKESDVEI
observed property: IC50
Your answer should be a number followed by the unit of measure.

Task: Entry `CC(C)(C)c1nc(-c2cccc(NS(=O)(=O)c3c(F)cccc3F)c2F)c(-c2ccnc(NCCCCCCC(=O)NO)n2)s1` : reported IC50 = ?
Output: 930 nM

---

test: Inhibition of HSP90 (unknown origin) by fluorescence polarization assay; design: species or system Homo sapiens
observed property: IC50 (nM)
Give your result in nM as a bare value.

Task: Entry `CC(C)c1cc(C(=O)N(C)Cc2ccc(C(=O)NO)cc2)c(O)cc1O` : reported IC50 = ?
Output: 61

---

target: Serine/threonine-protein kinase B-raf (Homo sapiens, UniProt P15056)
Sequence (P15056 whole entry): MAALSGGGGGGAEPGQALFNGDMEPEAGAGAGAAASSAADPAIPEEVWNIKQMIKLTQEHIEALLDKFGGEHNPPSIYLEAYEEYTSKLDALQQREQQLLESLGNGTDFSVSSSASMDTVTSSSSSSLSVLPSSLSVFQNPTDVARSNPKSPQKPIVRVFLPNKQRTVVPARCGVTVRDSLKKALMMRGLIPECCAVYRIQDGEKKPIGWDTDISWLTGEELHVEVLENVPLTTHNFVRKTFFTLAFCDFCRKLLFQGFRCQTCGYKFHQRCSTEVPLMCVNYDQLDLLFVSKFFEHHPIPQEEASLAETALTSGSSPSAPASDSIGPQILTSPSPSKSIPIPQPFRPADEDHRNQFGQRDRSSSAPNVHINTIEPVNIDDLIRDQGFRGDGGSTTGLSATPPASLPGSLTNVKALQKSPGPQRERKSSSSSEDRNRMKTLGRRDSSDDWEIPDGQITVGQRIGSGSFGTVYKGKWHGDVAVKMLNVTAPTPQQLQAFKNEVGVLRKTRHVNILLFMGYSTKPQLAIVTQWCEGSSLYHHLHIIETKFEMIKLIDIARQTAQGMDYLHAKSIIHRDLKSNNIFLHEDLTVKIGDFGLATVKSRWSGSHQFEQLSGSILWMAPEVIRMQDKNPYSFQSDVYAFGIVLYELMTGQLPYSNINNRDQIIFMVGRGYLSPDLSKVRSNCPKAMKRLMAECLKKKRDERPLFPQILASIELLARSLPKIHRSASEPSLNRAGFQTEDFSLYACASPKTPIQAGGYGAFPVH
observed property: IC50 (nM)
Give your result in nM as a bare value.

Task: Entry `CC(C)(C)c1nc(-c2cccc(NS(=O)(=O)c3c(F)cccc3F)c2F)c(-c2ccnc(NCCCCCCC(=O)NO)n2)s1` : reported IC50 = ?
Output: 4
